- tested.system: cAMP-dependent protein kinase type II-beta regulatory subunit (Homo sapiens) + cAMP-dependent protein kinase catalytic subunit beta (Mus musculus) (UniProt P31323+P68181)
- assay.summary: compounds dissociating PKAc from R2B subunit – biochemical, fluorescence polarization, powder samples, late-stage follow-up (AID 588841)
- assay.setup: PKA-R2B holoenzyme dissociation, Cy5-IP20 fluorescence polarization
Activity calls are given as the source filed them.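 How the source made its calls: active means EC50 at or below 10 µM; inactive means the rest.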
Documented EC50 across a set of molecules

Field: example entries. Status: answers known.
| sample.smiles | EC50 |
| --- | --- |
| O=C(O)c1sccc1SCc1ccc(Cl)cc1Cl | > 100 µM (inactive) |
| Cc1csc(C(=O)O)c1NC(=O)c1ccc(F)cc1 | > 100 µM (inactive) |
| O=C(O)c1sccc1SCc1ccc(Cl)c(Cl)c1 | > 100 µM (inactive) |
| CC(C)(C)c1ccc(COc2ccsc2C(=O)O)cc1 | > 100 µM (inactive) |
| O=C(O)c1sc2ncccc2c1OCc1ccccc1 | > 100 µM (inactive) |
| COC(=O)c1sc2ncccc2c1OCc1ccc(Cl)cc1Cl | > 100 µM (inactive) |
| Cc1ccc(COc2ccsc2C(=O)O)cc1 | > 100 µM (inactive) |
| COC(=O)c1sc2ncccc2c1OCc1ccccc1Cl | > 100 µM (inactive) |

Turning now to a further molecule:
Request: What measured EC50 goes with O=C(O)c1sccc1NC(=O)c1c(Cl)cccc1Cl ?
Response: > 100 µM (inactive)

Source: PubChem BioAssay AID588841
